test system: Plasmodium falciparum; assay: Antiparasitic activity against Plasmodium falciparum K1
pIC50: −log10 of the molar value.

# Smiles String, pIC50
rows = [
    ("N=C(N)c1ccc2cc(-c3ccc(-c4ccccc4)cc3)[nH]c2c1", 6.07),
    ("Cl.Cl.N=C(N)c1ccc2cc(C#Cc3ccc(C(=N)N)c(F)c3)[nH]c2c1", 8.23),
    ("Cl.Cl.N=C(N)c1ccc(-c2ccc(-c3cc4cc(C(=N)N)ccc4[nH]3)cc2)cc1", 9.15),
    ("N=C(N)c1ccc2cc(C#Cc3ccc(C(=N)N)nc3)[nH]c2c1", 8.51),
    ("Cl.Cl.N=C(N)c1ccc(C#Cc2cc3ccc(C(=N)N)cc3[nH]2)cc1", 8.42),
    ("N=C(N)c1ccc(C#Cc2cc3ccc(C(=N)N)cc3[nH]2)nc1", 7.85),
]

* * *

test: Selectivity index, ratio of IC50 for rat L6 cells to IC50 for Trypanosoma brucei rhodesiense STIB900; type: toxicity, cell-based; details: read-out: Ratio IC50

# Smiles String, selectivity ratio
measured = [
    ("Cl.Cl.N=C(N)c1ccc(-c2ccc(-c3cc4ccc(C(=N)N)cc4[nH]3)cc2)cc1", 5250),
    ("Cl.Cl.N=C(N)c1ccc(-c2ccc(-c3cc4cc(C(=N)N)ccc4[nH]3)cc2)cc1", 9720),
    ("N=C(N)c1ccc2cc(C#Cc3ccc(C(=N)N)nc3)[nH]c2c1", 533),
    ("Cl.Cl.N=C(N)c1ccc2cc(C#Cc3ccc(C(=N)N)c(F)c3)[nH]c2c1", 500),
    ("N=C(N)c1ccc(-c2ccc(-c3nc4ccc(C(=N)N)cc4[nH]3)cc2)cc1", 2210),
    ("N=C(N)c1ccc2cc(-c3ccc(-c4ccccc4)cc3)[nH]c2c1", 0.96),
    ("N=C(N)c1ccc(-c2cc3ccc(C(=N)N)cc3[nH]2)cc1", 51),
    ("N=C(N)c1ccc(C#Cc2cc3ccc(C(=N)N)cc3[nH]2)nc1", 60),
    ("Cl.Cl.N=C(N)c1ccc(C#Cc2cc3ccc(C(=N)N)cc3[nH]2)cc1", 1450),
]

* * *

assay: Selectivity index, ratio of IC50 for rat L6 cells to IC50 for Plasmodium falciparum K1; assay type: toxicity, cell-based; conditions: read-out: Ratio IC50
Measure Name: selectivity ratio

# Smiles String, Measure Name, Recorded Result
records = [
    ("N=C(N)c1ccc2cc(-c3ccc(-c4ccccc4)cc3)[nH]c2c1", "selectivity ratio", 9.8),
    ("Cl.Cl.N=C(N)c1ccc(-c2ccc(-c3cc4cc(C(=N)N)ccc4[nH]3)cc2)cc1", "selectivity ratio", 55600),
    ("N=C(N)c1ccc(-c2ccc(-c3nc4ccc(C(=N)N)cc4[nH]3)cc2)cc1", "selectivity ratio", 34000),
    ("N=C(N)c1ccc2cc(C#Cc3ccc(C(=N)N)nc3)[nH]c2c1", "selectivity ratio", 516),
    ("Cl.Cl.N=C(N)c1ccc(-c2ccc(-c3cc4ccc(C(=N)N)cc4[nH]3)cc2)cc1", "selectivity ratio", 3180),
    ("Cl.Cl.N=C(N)c1ccc2cc(C#Cc3ccc(C(=N)N)c(F)c3)[nH]c2c1", "selectivity ratio", 763),
    ("Cl.Cl.N=C(N)c1ccc(C#Cc2cc3ccc(C(=N)N)cc3[nH]2)cc1", "selectivity ratio", 2290),
    ("N=C(N)c1ccc(C#Cc2cc3ccc(C(=N)N)cc3[nH]2)nc1", "selectivity ratio", 933),
]

* * *

So I've got ΔTm readings for Poly(dA-dT)oligonucleotide, take a look.
Measure Name: ΔTm

# Smiles String, Recorded Result
data = [
    ("N=C(N)c1ccc(-c2cc3ccc(C(=N)N)cc3[nH]2)cc1", "> 27 °C"),
    ("N=C(N)c1ccc(-c2ccc(-c3nc4ccc(C(=N)N)cc4[nH]3)cc2)cc1", "> 27 °C"),
    ("Cl.Cl.N=C(N)c1ccc(-c2ccc(-c3cc4ccc(C(=N)N)cc4[nH]3)cc2)cc1", "> 27 °C"),
]
